property_measured: melting point

For COC(=O)C12OCC34C(CC5C(C)=C(O)C(=O)CC5(C)C3C(O)C1O)OC(=O)C(OC(=O)C=C(C)C(C)C)C24 (stereo not drawn) the compound record lists melting point as 220 to 223 °C

For c1cncc(-c2c[nH]cn2)c1 the compound record lists melting point as 117 to 118 °C

For CC(C)c1cc(C=C2C(=O)NC(=O)N2C)cc(C(C)C)c1O the compound record lists melting point as 197 to 208 °C

For Cc1cc(-c2ccc(Cl)c(Cl)c2)nc(-n2cnc(-c3ncc(S(N)(=O)=O)s3)c2)n1 the compound record lists melting point as 230 °C

For Cc1ccnc2c1n(C(C)C)c(=O)n2-c1ccc(Oc2nc3cccnc3n2C)cc1 the compound record lists melting point as 270 to 271 °C

Continuing:
For CCCCCCCCC=CCCCCCCCC(=O)CCCNC(=O)CCNC(C)=O the compound record lists melting point as 123 to 125 °C

For CC(=O)c1c2sc3ccccc3nc-2ccc1=O the compound record lists melting point as 222 °C

For COc1ccc2nc3[nH]nc(N)c3cc2c1 the compound record lists melting point as > 300 °C

For CCOc1ccc(-n2c(N)cc(=O)nc2Nc2ccccc2)cc1 the compound record lists melting point as 114 to 118 °C

For CCCCC1(CC)COP(=O)(Cc2ccc(N)cc2)OC1 (stereo not drawn) the compound record lists melting point as 90 to 91 °C
